Data credit: paper PMC10816986

# experimental.target: T1, ALKBH3 wt (Homo sapiens, UniProt Q96Q83 1-286)
# T1 sequence: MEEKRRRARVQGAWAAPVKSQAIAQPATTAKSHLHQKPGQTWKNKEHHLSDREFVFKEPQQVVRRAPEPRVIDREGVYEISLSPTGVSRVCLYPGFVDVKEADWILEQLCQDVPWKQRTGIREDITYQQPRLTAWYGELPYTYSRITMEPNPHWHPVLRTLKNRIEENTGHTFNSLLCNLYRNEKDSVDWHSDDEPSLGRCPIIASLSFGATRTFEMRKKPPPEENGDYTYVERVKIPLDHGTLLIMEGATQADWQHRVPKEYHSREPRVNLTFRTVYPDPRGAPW
# assay.remarks: intrinsic Trp fluorescence titration; apoprotein, 2 mM EDTA, no Fe(II)/2OG; Titration: 50 mM HEPES-KOH pH 7.8, 50 mM KCl, 10 mM MgCl2, 2 mM EDTA, 25 °C, 1 µM apoprotein; stopped-flow: with Fe(II) and 2OG, 0.5-4.0 µM DNA (buffer not in material)
# stated.conditions: protein: recombinant; tags: N-terminal His-tag (pET28a); single strand
observed.property: Kd (nM)
Express it in nM; write the number only.

Given item ACAGGATCCGGCATA (ssDNA, N3-methylcytosine at position 9) [m3C] , the value recorded as its Kd is 2800
